system: Vero E6; assay: cell viability relative to DMSO; higher = less toxic; conditions: 72 h; 10000 nM
readout: cell viability (%)
Numeric only. Scale: %

Example cases with answers are listed next.
>>> recorded_measurement("CC(N)Cc1c[nH]c2ccc(OCc3cccs3)cc12 (stereo not drawn)")
89.1
>>> recorded_measurement("CCC(=O)c1cc(-c2ccc(Cl)cc2)n(-c2ccc(S(N)(=O)=O)cc2)c1C")
91.2

Enquiry: // cell viability lookup, key: `COc1ccc(C(C)(C)C)cc1CN[C@H]1C2CCN(CC2)[C@H]1C(c1ccccc1)c1ccccc1`
Return: 62.6

Enquiry: I have this compound here, `CC(C)C[C@@H](N)C(=O)N[C@H]1C(=O)N[C@@H](CC(N)=O)C(=O)N[C@H]2C(=O)N[C@H]3C(=O)N[C@H](C(=O)N[C@H](C(=O)O)c4cc(O)cc(O)c4-c4cc3ccc4O)[C@H](O)c3ccc(c(Cl)c3)Oc3cc2cc(c3O[C@@H]2O[C@H](CO)[C@@H](O)[C@H](O)[C@H]2O[C@H]2C[C@](C)(N)[C@H](O)[C@H](C)O2)Oc2ccc(cc2Cl)[C@H]1O` , and I need its recorded cell viability.
Return: 104

Enquiry: What does the data say about its cell viability? Entry: `NCCCC[C@H](NC(=O)[C@@H]1CCCN1C(=O)[C@@H]1CSSC[C@H](NC(=O)CNC(=O)CNC(=O)CN)C(=O)N[C@@H](Cc2ccc(O)cc2)C(=O)N[C@@H](Cc2ccccc2)C(=O)N[C@@H](CCC(N)=O)C(=O)N[C@@H](CC(N)=O)C(=O)N1)C(=O)NCC(N)=O`
Return: 110

Enquiry: Quick one: cell viability for O=C1CCC(N2C(=O)c3ccccc3C2=O)C(=O)N1 (stereo not drawn) [thalidomide] ?
Return: 96.1

Enquiry: Can you share its cell viability? I mean this compound: `C[C@@H](O)[C@H]1C(=O)N2C(C(=O)O)=C(S[C@@H]3CN[C@H](C(=O)Nc4cccc(C(=O)O)c4)C3)[C@H](C)[C@H]12`
Return: 103

###

tested on: U2OS; assay: cell viability relative to DMSO; higher = less toxic; conditions: 72 h; 1 nM
Overview of reported cell viability across a group of compounds:
State just the number; it will be interpreted in %.

>>> recorded_measurement("COc1ccccc1N1CCN(CCN2C(=O)c3ccccc3C(C)(C)C2=O)CC1")
96.8
>>> recorded_measurement("O=C1C(=Cc2cccnc2)C(=O)c2ccccc21")
102
>>> recorded_measurement("Oc1ccc(-c2nc(-c3ccc(F)cc3)c(-c3ccncc3)[nH]2)cc1")
96.6
>>> recorded_measurement("Cc1cc(O)c2c(c1)C(=O)c1cc(O)cc(O)c1C2=O")
94.2
>>> recorded_measurement("C[C@@H]1C[C@H]2[C@@H]3C[C@H](F)C4=CC(=O)C=C[C@]4(C)[C@@]3(Cl)[C@@H](O)C[C@]2(C)[C@H]1C(=O)COC(=O)C(C)(C)C [clocortolone-pivalate]")
95.7
>>> recorded_measurement("NC1CCN(c2nc3c(cc2F)c(=O)c(C(=O)O)cn3-c2ccc(F)cc2F)C1 (stereo not drawn)")
97.3

Enquiry: Lookup: cell viability / U2OS / `N#CCC1(n2cc(-c3ncnc4[nH]ccc34)cn2)CN(C2CCN(C(=O)c3ccnc(C(F)(F)F)c3F)CC2)C1`
Return: 98.6

Enquiry: Request: cell viability, test system U2OS, entry `Cc1cccc(Nc2cc(Cl)nc(SCC(=O)O)n2)c1C`
Return: 103

###

system: Caco-2; experiment: cell viability relative to DMSO; higher = less toxic; conditions: 72 h; 1000 nM
readout: cell viability (%)
Kindly provide the numeric value in % only, without the unit symbol.

Example entries begin here.
>>> recorded_measurement("OCc1cccnc1 [nicotinyl-alcohol-tartrate]")
96.1
>>> recorded_measurement("O=C1COc2nccc(-c3ccccc3F)c2CN1Cc1cc(C(F)(F)F)cc(C(F)(F)F)c1")
102
>>> recorded_measurement("CC1Oc2cc(cnc2N)-c2c(nn(C)c2C#N)CN(C)C(=O)c2ccc(F)cc21 (centres undefined)")
91.6
>>> recorded_measurement("NS(=O)(=O)c1cc2c(cc1C(F)(F)F)NC(Cc1ccccc1)NS2(=O)=O (centres undefined) [bendroflumethiazide]")
99.1
>>> recorded_measurement("C[C@@H](O[C@H]1OCCN(Cc2n[nH]c(=O)[nH]2)[C@H]1c1ccc(F)cc1)c1cc(C(F)(F)F)cc(C(F)(F)F)c1 [aprepitant]")
105
>>> recorded_measurement("CCCCc1ccc(NS(=O)(=O)c2ccc(F)cc2)cc1")
93.3
>>> recorded_measurement("O=C(Nc1ccc(-c2ccncc2)cc1)N[C@H](CO)c1ccccc1")
95.3
>>> recorded_measurement("NC(=O)c1ccccc1O [salicylamide]")
84.8

Enquiry: Tell me the measured cell viability of `Cc1cccc(Nc2cc(Cl)nc(SCC(=O)O)n2)c1C` , please.
Return: 98.1

###

In this section we review reported drug sensitivity score values for a set of molecules.
tested on: Calu-3; assay: drug sensitivity score (DSS) for viability; higher = more toxic; extreme values may be limits of the assay; conditions: 72 h
Would you mind answering with just the numeric figure?

>>> recorded_measurement("NCCCC[C@H](NC(=O)[C@@H]1CCCN1C(=O)[C@@H]1CSSC[C@H](NC(=O)CNC(=O)CNC(=O)CN)C(=O)N[C@@H](Cc2ccc(O)cc2)C(=O)N[C@@H](Cc2ccccc2)C(=O)N[C@@H](CCC(N)=O)C(=O)N[C@@H](CC(N)=O)C(=O)N1)C(=O)NCC(N)=O")
0

Continue with the molecule presented below.
Enquiry: // lookup drug sensitivity score for C[C@@H]1C[C@H]2[C@@H]3C[C@H](F)C4=CC(=O)C=C[C@]4(C)[C@@]3(Cl)[C@@H](O)C[C@]2(C)[C@H]1C(=O)COC(=O)C(C)(C)C [clocortolone-pivalate]
Return: 0

###

Parameter: cell viability. Scope: all listed entries.
test system: Calu-3; experiment: cell viability relative to DMSO; higher = less toxic; conditions: 72 h; 100 nM
Response body: numeric value in %, unit text excluded.

Past entries and their recorded results:
>>> recorded_measurement("NC(=O)c1ccc[n+]([C@@H]2O[C@H](COP(=O)([O-])OP(=O)(O)OC[C@H]3O[C@@H](n4cnc5c(N)ncnc54)[C@H](O)[C@@H]3O)[C@@H](O)[C@H]2O)c1 [nadide]")
94
>>> recorded_measurement("CCOc1ccccc1OC(c1ccccc1)C1CNCCO1 (stereo not drawn)")
99.4
>>> recorded_measurement("Clc1ccc(N/N=C(\\c2ccccc2)c2ccccn2)nc1")
102
>>> recorded_measurement("O=C(Nc1nc(-c2cc(Cl)cs2)c(N2CCN(C3CCCCC3)CC2)s1)c1cnc(N2CCC(C(=O)O)CC2)c(Cl)c1")
93.9
>>> recorded_measurement("Oc1cc2c(cc1O)[C@@H]1c3ccc(O)c(O)c3OC[C@]1(O)C2")
92.4

Enquiry: For the compound `Cc1c(CN(C)C(=O)/C=C/c2cnc3c(c2)CCC(=O)N3)oc2ccccc12` , what cell viability is on record?
Return: 102

Enquiry: Field request: cell viability | item: `COc1cc2c(Nc3ccc(NC(=O)c4ccccc4)cc3)ncnc2cc1OCCCN1CCOCC1`
Return: 96.9

Enquiry: Look up cell viability for this compound: `O=C(O)c1ccc(CN2CCC(CN[C@@H]3C[C@H]3c3ccccc3)CC2)cc1`
Return: 94.7

###

test system: HepG2; assay: drug sensitivity score (DSS) for viability; higher = more toxic; extreme values may be limits of the assay; settings: 72 h
# drug sensitivity score listing for each entry below
Give the figure by itself; no unit, no explanation.

Enquiry: Reported drug sensitivity score for `Cc1cccc(-c2[nH]c(C(C)(C)C)nc2-c2ccc3nccnc3c2)n1` : what is it?
Return: 7.9

###

test system: U2OS; test: cell viability relative to DMSO; higher = less toxic; settings: 72 h; 1000 nM
readout: cell viability (%)
Field: numeric (%). Do not append units.

Enquiry: I am curious: what cell viability value has been reported for COc1ccc(C(C)(C)C)cc1CN[C@H]1C2CCN(CC2)[C@H]1C(c1ccccc1)c1ccccc1 [maropitant] ?
Return: 93.9

Enquiry: Can you share its cell viability? I mean this compound: CCc1cc(C(N)=S)ccn1 [ethionamide]
Return: 94.7

Enquiry: Which value of cell viability has been reported for Cc1nc2n(c(=O)c1CCN1CCC(c3noc4cc(F)ccc34)CC1)CCCC2O (stereo unspecified) [paliperidone] in the records?
Return: 101

Enquiry: Entry under review: C[C@@H]1COCCN1c1cc(C2([S@](C)(=N)=O)CC2)nc(-c2ccnc3[nH]ccc23)n1 [AZD6738] . Reported cell viability?
Return: 96.8

Enquiry: What does the record list as cell viability for COc1cccc2c1C(=O)c1c(O)c3c(c(O)c1C2=O)C[C@@](O)(C(=O)CO)C[C@@H]3O[C@H]1C[C@H](N2CCO[C@H](OC)C2)[C@H](O)[C@H](C)O1 [nemorubicin] ?
Return: 0.3

Enquiry: // cell viability lookup, key: CCN(CC)CCOc1ccc2c(c1)C(=O)c1cc(OCCN(CC)CC)ccc1-2 [tilorone]
Return: 95.9

Data credit: the supplement of paper PMC13380429
